Values compiled from patent US10851098B2.

Target: human αVβ6 (Homo sapiens, UniProt P06756+P18564)
Sequence (P06756 31-992 limits assumed): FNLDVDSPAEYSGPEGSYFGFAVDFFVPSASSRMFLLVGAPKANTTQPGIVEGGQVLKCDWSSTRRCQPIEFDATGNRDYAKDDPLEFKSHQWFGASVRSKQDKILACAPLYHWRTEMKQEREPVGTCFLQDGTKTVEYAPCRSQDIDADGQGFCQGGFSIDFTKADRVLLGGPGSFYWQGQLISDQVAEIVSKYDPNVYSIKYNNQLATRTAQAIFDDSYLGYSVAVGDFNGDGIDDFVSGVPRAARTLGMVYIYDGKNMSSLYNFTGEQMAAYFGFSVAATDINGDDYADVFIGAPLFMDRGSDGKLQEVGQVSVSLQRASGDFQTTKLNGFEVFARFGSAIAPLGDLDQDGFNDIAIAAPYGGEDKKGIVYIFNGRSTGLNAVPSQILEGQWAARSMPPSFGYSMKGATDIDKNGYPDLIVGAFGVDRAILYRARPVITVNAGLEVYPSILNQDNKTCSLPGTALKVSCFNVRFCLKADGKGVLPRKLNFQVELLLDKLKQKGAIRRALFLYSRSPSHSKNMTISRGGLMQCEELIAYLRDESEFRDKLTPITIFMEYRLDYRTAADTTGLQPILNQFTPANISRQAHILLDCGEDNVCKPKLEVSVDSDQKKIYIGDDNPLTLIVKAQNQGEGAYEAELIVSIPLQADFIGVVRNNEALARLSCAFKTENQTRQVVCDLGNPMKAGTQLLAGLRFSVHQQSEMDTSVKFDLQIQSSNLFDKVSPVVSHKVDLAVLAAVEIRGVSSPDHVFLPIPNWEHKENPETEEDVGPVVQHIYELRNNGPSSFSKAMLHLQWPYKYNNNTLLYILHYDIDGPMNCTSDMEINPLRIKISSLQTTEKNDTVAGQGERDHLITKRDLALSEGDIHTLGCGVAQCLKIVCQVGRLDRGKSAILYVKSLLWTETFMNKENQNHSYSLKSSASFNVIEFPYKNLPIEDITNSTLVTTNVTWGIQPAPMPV
Sequence (P18564 22-707 limits assumed): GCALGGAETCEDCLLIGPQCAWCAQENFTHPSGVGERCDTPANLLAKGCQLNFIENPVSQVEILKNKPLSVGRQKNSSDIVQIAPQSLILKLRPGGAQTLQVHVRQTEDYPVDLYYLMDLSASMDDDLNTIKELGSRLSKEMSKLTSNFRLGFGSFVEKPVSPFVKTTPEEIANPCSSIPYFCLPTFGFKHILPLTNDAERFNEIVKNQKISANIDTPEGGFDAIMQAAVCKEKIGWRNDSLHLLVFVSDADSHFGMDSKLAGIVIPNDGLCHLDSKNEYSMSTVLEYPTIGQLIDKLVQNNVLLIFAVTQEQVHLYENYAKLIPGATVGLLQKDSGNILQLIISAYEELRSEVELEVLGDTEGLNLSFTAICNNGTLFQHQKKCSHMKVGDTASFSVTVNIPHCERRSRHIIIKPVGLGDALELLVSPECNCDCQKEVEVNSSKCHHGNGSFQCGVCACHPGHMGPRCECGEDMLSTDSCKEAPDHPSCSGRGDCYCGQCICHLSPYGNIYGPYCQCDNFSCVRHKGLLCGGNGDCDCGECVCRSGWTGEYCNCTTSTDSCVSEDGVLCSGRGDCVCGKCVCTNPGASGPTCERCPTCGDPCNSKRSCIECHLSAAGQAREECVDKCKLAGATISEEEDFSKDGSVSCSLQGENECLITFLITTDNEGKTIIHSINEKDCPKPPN
Assay: human αVβ6 HTRF binding assay
pIC50: −log10 of the molar value.
metric: pIC50

Examples with answers:
Find pIC50 for `O=C(NC[C@H](NS(=O)(=O)CCC(F)(F)F)C(=O)O)c1cnn(CCc2ccc3c(n2)NCCC3)c1` on human αVβ6 (Homo sapiens, UniProt P06756+P18564) and write it down.
8.52

Find pIC50 for `O=C(NC[C@H](NS(=O)(=O)CC1CCCCC1)C(=O)O)c1cnn(CCc2ccc3c(n2)NCCC3)c1` on human αVβ6 (Homo sapiens, UniProt P06756+P18564) and write it down.
8.19

Find pIC50 for `COc1ccc([C@H](CC(=O)O)NC(=O)c2cnn(CCc3ccc4c(n3)NCCC4)c2CO)cc1F` on human αVβ6 (Homo sapiens, UniProt P06756+P18564) and write it down.
8.03

Find pIC50 for Cc1ccc(Oc2cccc(C(CC(=O)O)NC(=O)c3cnn(CCc4ccc5c(n4)NCCC5)c3COC(C)(C)C)c2)cc1 (centres unmarked) on human αVβ6 (Homo sapiens, UniProt P06756+P18564) and write it down.
8.64

Find pIC50 for `Cc1cc(C)c(S(=O)(=O)N[C@@H](CNC(=O)c2ncn(CCc3ccc4c(n3)NCCC4)n2)C(=O)O)c(C)c1` on human αVβ6 (Homo sapiens, UniProt P06756+P18564) and write it down.
8.70

Find pIC50 for `CC(C)(C)c1cc(Br)cc([C@H](CC(=O)O)NC(=O)c2cnn(CCc3ccc4c(n3)NCCC4)c2)c1` on human αVβ6 (Homo sapiens, UniProt P06756+P18564) and write it down.
8.72

(P) CC#CCOC(=O)N[C@@H](CNC(=O)c1cnn(CCc2ccc3c(n2)NCCC3)c1)C(=O)O
(Q) O=C(NC[C@H](NS(=O)(=O)Cc1ccccc1F)C(=O)O)c1cnn(CCc2ccc3c(n2)NCCC3)c1
Could you check which of P and Q has a smaller value for pIC50? The response must carry the label of the picked entry.
Q
(Q: 8.00, P: 8.66)
